Source listed as patent US20080312255A1.

- measured on: S. aureus GyrB ATPase (Staphylococcus aureus, UniProt P0A0K8)
- Sequence (P0AES4 whole entry): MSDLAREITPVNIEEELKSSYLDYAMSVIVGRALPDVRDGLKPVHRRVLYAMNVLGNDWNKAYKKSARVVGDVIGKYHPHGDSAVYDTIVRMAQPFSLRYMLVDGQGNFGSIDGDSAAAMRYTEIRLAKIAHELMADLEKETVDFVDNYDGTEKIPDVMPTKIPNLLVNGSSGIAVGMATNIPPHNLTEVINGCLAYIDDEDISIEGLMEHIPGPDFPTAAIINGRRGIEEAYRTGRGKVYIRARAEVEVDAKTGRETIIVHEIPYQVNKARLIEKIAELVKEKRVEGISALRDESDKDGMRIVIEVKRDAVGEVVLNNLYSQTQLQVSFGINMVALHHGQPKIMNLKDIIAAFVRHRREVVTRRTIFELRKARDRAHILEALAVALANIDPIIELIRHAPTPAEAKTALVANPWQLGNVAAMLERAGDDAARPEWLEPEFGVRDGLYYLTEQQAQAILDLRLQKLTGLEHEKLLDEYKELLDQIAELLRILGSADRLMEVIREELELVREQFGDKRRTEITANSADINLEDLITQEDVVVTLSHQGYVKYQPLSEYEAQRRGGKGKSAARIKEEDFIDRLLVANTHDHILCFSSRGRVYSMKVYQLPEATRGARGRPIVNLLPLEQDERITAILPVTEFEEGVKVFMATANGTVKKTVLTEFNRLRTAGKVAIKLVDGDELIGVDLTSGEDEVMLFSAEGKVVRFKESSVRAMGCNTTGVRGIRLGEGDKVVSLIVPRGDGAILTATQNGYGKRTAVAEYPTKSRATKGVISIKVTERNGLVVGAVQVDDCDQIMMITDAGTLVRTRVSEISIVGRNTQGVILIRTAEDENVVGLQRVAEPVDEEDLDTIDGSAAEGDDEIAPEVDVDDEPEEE
- Sequence (P0A0K8 whole entry): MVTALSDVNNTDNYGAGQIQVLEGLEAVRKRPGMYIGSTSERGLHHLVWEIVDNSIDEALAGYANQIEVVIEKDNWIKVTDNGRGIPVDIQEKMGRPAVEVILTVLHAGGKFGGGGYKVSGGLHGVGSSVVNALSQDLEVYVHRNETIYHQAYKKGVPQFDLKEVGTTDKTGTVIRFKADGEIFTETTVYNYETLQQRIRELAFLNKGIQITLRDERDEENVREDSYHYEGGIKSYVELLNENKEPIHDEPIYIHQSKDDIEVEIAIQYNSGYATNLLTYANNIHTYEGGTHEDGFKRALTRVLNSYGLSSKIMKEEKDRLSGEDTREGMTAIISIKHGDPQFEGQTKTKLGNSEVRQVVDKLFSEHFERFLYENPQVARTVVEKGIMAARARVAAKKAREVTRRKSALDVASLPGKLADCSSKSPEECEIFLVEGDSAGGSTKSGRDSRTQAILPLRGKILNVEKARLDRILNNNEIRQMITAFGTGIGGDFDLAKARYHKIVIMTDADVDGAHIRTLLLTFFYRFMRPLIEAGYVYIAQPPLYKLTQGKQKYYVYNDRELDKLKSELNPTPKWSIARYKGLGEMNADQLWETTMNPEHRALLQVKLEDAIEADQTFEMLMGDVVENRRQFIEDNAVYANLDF
- experiment notes: S. aureus GyrB ATPase inhibition (ammonium molybdate/malachite green phosphate detection)
- Type: biochemical
- condition parameters: compound concentration of 1 μM
measured attribute: inhibition at 1 µM (%)
Please respond with the number in % and leave the unit unwritten.

# example entries with known answers
1) COC(=O)c1sc(N2CC[C@@H](NC(=O)c3[nH]c(C)c(Cl)c3Cl)[C@@H](F)C2)nc1-c1csc(N)n1	100
2) COCCn1ccnc1-c1nc(N2CC[C@@H](NC(=O)c3[nH]c(C)c(Cl)c3C#N)[C@@H](OCc3ccccc3)C2)sc1C(=O)O	98.6
3) Cc1cnc(-c2nc(N3CC[C@@H](NC(=O)c4[nH]c(C)c(Cl)c4Cl)[C@@H](F)C3)sc2C(=O)O)cn1	92.1
4) CO[C@H]1CN(c2nc(-c3ncnn3C)c(C(=O)O)s2)CC[C@H]1NC(=O)c1[nH]c(C)c(Cl)c1C#N	103
5) Cc1[nH]c(C(=O)N[C@@H]2CCN(c3nc(-c4csc(N(C)C)n4)c(C(=O)O)s3)C[C@@H]2F)c(Cl)c1Cl	97.3

Req: Param request: inhibition at 1 µM | system S. aureus GyrB ATPase (Staphylococcus aureus, UniProt P0A0K8) | item `CCOC(=O)c1sc(N2CC[C@@H](NC(=O)c3[nH]c(C)c(Cl)c3Cl)[C@@H](OC)C2)nc1-c1nc2ccccc2s1`
Resp: 97.8

Req: Look up S. aureus GyrB ATPase (Staphylococcus aureus, UniProt P0A0K8) data: inhibition at 1 µM of `CO[C@H]1CN(c2nc(-c3cn(C)nn3)c(C(=O)O)s2)CC[C@H]1NC(=O)c1[nH]c(C)c(Cl)c1Cl` , then report it.
Resp: 101

====

- measured on: S. aureus GyrB ATPase (Staphylococcus aureus, UniProt P0A0K8)
- experiment notes: S. aureus GyrB ATPase inhibition (ammonium molybdate/malachite green phosphate detection)
- Format: biochemical
- condition parameters: compound concentration of 1 μM
Listed molecules paired with reported inhibition at 1 µM
Dear colleague, please return just the value in %, with no unit written.

1. COC(=O)c1sc(N2CC[C@@H](NC(=O)c3[nH]c(C)c(Cl)c3Cl)[C@@H](F)C2)nc1-c1ccno1 [Example 61]	94.7
2. Cc1[nH]c(C(=O)N[C@@H]2CCN(c3nc(-c4cn(C)cn4)c(C(=O)O)s3)C[C@@H]2F)c(Cl)c1Cl [Example 41]	104
3. CCCO[C@H]1CN(c2nc(-c3ncccc3F)c(C(=O)O)s2)CC[C@H]1NC(=O)c1[nH]c(C)c(Cl)c1Cl [Example 160]	4.5
4. CO[C@H]1CN(c2nc(-c3ncccc3F)c(C(=O)O)s2)CC[C@H]1NC(=O)c1[nH]c(C)c(Cl)c1Cl [Example 114]	82.9
5. CCOC(=O)c1sc(N2CC[C@@H](NC(=O)c3[nH]c(C)c(Cl)c3Cl)[C@@H](OC)C2)nc1-c1ccccn1 [Example 48]	100

Req: Indicate its recorded inhibition at 1 µM; the molecule in question is Cc1[nH]c(C(=O)N[C@@H]2CCN(c3nc(-c4ncccn4)c(C(=O)O)s3)C[C@@H]2F)c(Cl)c1Cl [Example 4]
Resp: 97.7

Req: Answer with reported inhibition at 1 µM of CO[C@H]1CN(c2nc(-c3ncnn3C)c(C(=O)O)s2)CC[C@H]1NC(=O)c1[nH]c(C)c(C#N)c1Cl [Example 29]
Resp: 101

Req: Specify measured inhibition at 1 µM for Cc1[nH]c(C(=O)N[C@@H]2CCN(c3nc(-c4ncnn4C)c(C(=O)O)s3)C[C@@H]2OCc2ccccc2)c(Cl)c1Cl [Example 141] .
Resp: 116

Req: Give inhibition at 1 µM for CO[C@H]1CN(c2nc(-c3nccn3COCC[Si](C)(C)C)c(C(=O)O)s2)CC[C@H]1NC(=O)c1[nH]c(C)c(Cl)c1Cl [Example 16]
Resp: 100

Req: # return recorded inhibition at 1 µM for entry CNc1nc(-c2nc(N3CC[C@@H](NC(=O)c4[nH]c(C)c(Cl)c4Cl)[C@@H](F)C3)sc2C(=O)OC)cs1 [Example 75]
Resp: 93.1

Req: For Cc1[nH]c(C(=O)N[C@@H]2CCN(c3nc(-c4nccs4)c(C(=O)O)s3)C[C@@H]2F)c(Cl)c1Cl [Example 6] , write its inhibition at 1 µM.
Resp: 99.9

Req: Retrieve inhibition at 1 µM measured for CO[C@H]1CN(c2nc(-c3ncccn3)c(C(=O)O)s2)CC[C@H]1NC(=O)c1[nH]c(C)c(Cl)c1C#N [Example 122] and print it.
Resp: 103

Req: Using known records, supply inhibition at 1 µM for COC(=O)c1sc(N2CC[C@@H](NC(=O)c3[nH]c(C)c(Cl)c3Cl)[C@@H](OC)C2)nc1-c1cccc(OC)n1 [Example 94]
Resp: 106

Req: Give inhibition at 1 µM for the following molecule: CCOC(=O)c1sc(N2CC[C@@H](NC(=O)c3[nH]c(C)c(Cl)c3Cl)[C@@H](F)C2)nc1-c1ncccc1F [Example 102]
Resp: 81.4

====

- measured on: S. aureus GyrB ATPase (Staphylococcus aureus)
- experiment notes: S. aureus GyrB ATPase inhibition (ammonium molybdate/malachite green phosphate detection)
- Format: biochemical
- condition parameters: compound concentration of 1 μM
Counter-ions that a name gives are not always drawn.
Readings of inhibition at 1 µM for the listed compounds
// units = %; emit number, no label

Below are worked cases with known answers.
1. CO[C@H]1CN(c2nc(-c3n(C)cc[n+]3C)c(C(=O)O)s2)CC[C@H]1NC(=O)c1[nH]c(C)c(Cl)c1Cl [Example 22, trifluoroacetate]	101
2. Cc1[nH]c(C(=O)N[C@@H]2CCN(c3nc(-c4ncccc4F)c(C(=O)O)s3)C[C@@H]2F)c(Cl)c1Cl	79.4
3. COCCn1ccnc1-c1nc(N2CC[C@@H](NC(=O)c3[nH]c(C)c(Cl)c3Cl)[C@@H](OCc3ccccc3)C2)sc1C(=O)O	98.8
4. CO[C@H]1CN(c2nc(-c3ncc[nH]3)c(C(=O)O)s2)CC[C@H]1NC(=O)c1[nH]c(C)c(Cl)c1Cl	101
5. COC(=O)c1sc(N2CC[C@@H](NC(=O)c3[nH]c(C)c(Cl)c3Cl)[C@@H](OC)C2)nc1-c1ccn[nH]1	99.9
6. CCOC(=O)c1sc(N2CC[C@@H](NC(=O)c3[nH]c(C)c(Cl)c3Cl)[C@@H](OC)C2)nc1-c1cn(C)cn1	100
7. COC(=O)c1sc(N2CC[C@@H](NC(=O)c3[nH]c(C)c(Cl)c3Cl)[C@@H](F)C2)nc1-c1cn(C)nn1	102
8. CO[C@H]1CN(c2nc(-c3cnc(C)cn3)c(C(=O)O)s2)CC[C@H]1NC(=O)c1[nH]c(C)c(Cl)c1C#N	104

Req: Return value of inhibition at 1 µM for input `CO[C@H]1CN(c2nc(-c3ncccn3)c(C(=O)O)s2)CC[C@H]1NC(=O)c1[nH]c(C)c(Cl)c1Cl` , no commentary.
Resp: 99.2

Req: State, in one line, measured inhibition at 1 µM of `COC(=O)c1sc(N2CC[C@@H](NC(=O)c3[nH]c(C)c(Cl)c3Cl)[C@@H](OC)C2)nc1-c1nccc(OC)n1`
Resp: 103

Req: Determine its reported inhibition at 1 µM: `COC(=O)c1sc(N2CC[C@@H](NC(=O)c3[nH]c(C)c(Cl)c3Cl)[C@@H](F)C2)nc1-c1csc(N(C)C)n1`
Resp: 99.2

Req: Quote inhibition at 1 µM reported for `COCn1ccnc1-c1nc(N2CC[C@@H](NC(=O)c3[nH]c(C)c(Cl)c3Cl)[C@@H](F)C2)sc1C(=O)OC` please.
Resp: 100

Req: Item `COC(=O)c1sc(N2CC[C@@H](NC(=O)c3[nH]c(C)c(Cl)c3Cl)[C@@H](F)C2)nc1-c1nccn1C` : provide inhibition at 1 µM
Resp: 101

====

Below is a list of entries, each paired with its recorded inhibition at 1 µM value.
- measured on: S. aureus GyrB ATPase (Staphylococcus aureus)
- experiment notes: S. aureus GyrB ATPase inhibition (ammonium molybdate/malachite green phosphate detection)
- Assay type: biochemical
- condition parameters: compound concentration of 1 μM
Give the quantity in %, number only.

Here is how some molecules turned out for inhibition at 1 µM.
1. CO[C@H]1CN(c2nc(-c3cn(C)nn3)c(C(=O)O)s2)CC[C@H]1NC(=O)c1[nH]c(C)c(Cl)c1C#N	104
2. Cc1[nH]c(C(=O)N[C@@H]2CCN(c3nc(-c4ncnn4C)c(C(=O)O)s3)C[C@@H]2F)c(Cl)c1Cl	87.1
3. COCn1ccnc1-c1nc(N2CC[C@@H](NC(=O)c3[nH]c(C)c(Cl)c3Cl)[C@@H](F)C2)sc1C(=O)O	102
4. COc1ccnc(-c2nc(N3CC[C@@H](NC(=O)c4[nH]c(C)c(Cl)c4Cl)[C@@H](OC)C3)sc2C(=O)O)c1	81.1
5. CCOC(=O)c1sc(N2CC[C@@H](NC(=O)c3[nH]c(C)c(Cl)c3C#N)[C@@H](OC)C2)nc1-c1ncccn1	103
6. CCOC(=O)c1sc(N2CC[C@@H](NC(=O)c3[nH]c(C)c(Cl)c3Cl)[C@@H](OC)C2)nc1-c1ccncn1	100
7. CCOC(=O)c1sc(N2CC[C@@H](NC(=O)c3[nH]c(C)c(Cl)c3Cl)[C@@H](OC)C2)nc1-c1nnco1	102
8. CCOC(=O)c1sc(N2CC[C@@H](NC(=O)c3[nH]c(C)c(Cl)c3Cl)[C@@H](F)C2)nc1-c1cnccn1	97.9

Kindly consider the entry below.
Req: Specify reported inhibition at 1 µM for the molecule shown: `COC(=O)c1sc(N2CC[C@@H](NC(=O)c3[nH]c(C)c(Cl)c3Cl)[C@@H](OC)C2)nc1-c1ncc(C)nc1C`
Resp: 99.3
